assayedSystem: NRAS Q61K (Homo sapiens, UniProt P01111+P62937, Q61K)
Sequence (P01111 whole entry Q61K, one chain of several): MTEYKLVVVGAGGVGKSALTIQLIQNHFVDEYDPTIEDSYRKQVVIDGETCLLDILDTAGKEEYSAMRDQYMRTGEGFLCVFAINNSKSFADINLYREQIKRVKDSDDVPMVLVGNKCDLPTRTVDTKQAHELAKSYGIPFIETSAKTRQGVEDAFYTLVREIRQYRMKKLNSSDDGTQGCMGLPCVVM
protocolText: Disruption of BRAF RBD interaction with Ras (FRET / MOA assay, with Cyclophilin A)
Type: biochemical
recordedConditions: NRAS Q61K; read-out: NRAS Q61K FRET data IC50
pIC50: −log10 of the molar value.
readoutType: pIC50

molecule: CCn1c(-c2cc(N3CCN(C)CC3)cnc2[C@H](C)OC)c2c3cc(ccc31)-c1csc(n1)C[C@H](NC(=O)[C@H](C(C)C)N(C)C(=O)N1CCC13CCN(C)CC3)C(=O)N1CCC[C@H](N1)C(=O)OCC(C)(C)C2 (atropisomer, axis not shown)
readoutType: pIC50
observedResult: 7.00 to 8.00
//
molecule: CCn1c(-c2cccnc2[C@H](C)OC)c2c3cc(ccc31)-c1csc(n1)C[C@H](NC(=O)[C@H](C(C)C)N(C)C(=O)N1CC[C@H]1C(=O)NC)C(=O)N1CC(C)C[C@H](N1)C(=O)OCC(C)(C)C2 (stereo partly shown)
readoutType: pIC50
observedResult: 5.00 to 6.00
//
molecule: CCn1c(-c2cnccc2COC)c2c3cc(ccc31)-c1cc(O)cc(c1)C[C@H](NC(=O)[C@H](C(C)C)N(C)C(=O)[C@H]1CCN(S(=O)(=O)N3CC(O)C3)C1)C(=O)N1CCC[C@H](N1)C(=O)OCC(C)(C)C2
readoutType: pIC50
observedResult: 5.00 to 6.00
//
molecule: C=CC(=O)N1CC2[C@@H](C1)CN2C(=O)N(C)[C@H](C(=O)N[C@H]1Cc2nc(cs2)-c2ccc3c(c2)c(c(-c2cccnc2[C@H](C)OC)n3CC)CC(C)(C)COC(=O)[C@@H]2CCCN(N2)C1=O)C(C)C (stereo partly shown)
readoutType: pIC50
observedResult: 7.00 to 8.00

---

assayedSystem: NRAS WT (Homo sapiens, UniProt P01111+P62937)
Sequence (P01111 whole entry, one chain of several): as the sequence (P01111 whole entry Q61K, one chain of several) above, with K61Q counted along it
protocolText: Disruption of BRAF RBD interaction with Ras (FRET / MOA assay, with Cyclophilin A)
Format: biochemical
recordedConditions: NRAS WT; read-out: NRAS WT FRET data IC50

compound: CCn1c(-c2cccnc2[C@H](C)OC)c2c3cc(ccc31)-c1csc(n1)C[C@H](NC(=O)[C@H](C(C)C)N(C)C(=O)N1CC3(CC(N(C)C)C3)C1)C(=O)N1CCC[C@H](N1)C(=O)OCC(C)(C)C2 (atropisomer, axis not shown)
IC50: 100 to 1000 nM
--
compound: CCn1c(-c2cccnc2[C@H](C)OC)c2c3cc(ccc31)-c1csc(n1)C[C@H](NC(=O)[C@H](C(C)C)N(C)C(=O)N1CC3(CC(N(C)CCO)C3)C1)C(=O)N1CCC[C@H](N1)C(=O)OCC(C)(C)C2 (atropisomer, axis not shown)
IC50: 100 to 1000 nM
--
compound: CCn1c(-c2cccnc2[C@H](C)OC)c2c3cc(ccc31)-c1csc(n1)C[C@H](NC(=O)N1CCCC1)C(=O)N1CCC[C@H](N1)C(=O)OCC(C)(C)C2
IC50: 100 to 1000 nM
--
compound: CCn1c(-c2cccnc2[C@H](C)OC)c2c3cc(ccc31)-c1csc(n1)C[C@H](NC(=O)[C@H](C(C)C)N(C)C(=O)N1CCOC[C@@H]1c1ccccc1)C(=O)N1CCC[C@H](N1)C(=O)OCC(C)(C)C2
IC50: 1000 to 10000 nM
--
compound: CCn1c(-c2cccnc2[C@H](C)OC)c2c3cc(ccc31)-c1csc(n1)C[C@H](NC(=O)[C@H](C(C)C)N(C)C(=O)N1CC(N(C)C3CC3)C1)C(=O)N1CCC[C@H](N1)C(=O)OCC(C)(C)C2 (atropisomer, axis not shown)
IC50: 100 to 1000 nM
--
compound: CCn1c(-c2cccnc2[C@H](C)OC)c2c3cc(ccc31)-c1csc(n1)C[C@H](NC(=O)[C@H](C(C)C)N(C)C(=O)N1CC[C@]3(CCN(C)C3=O)C1)C(=O)N1CCC[C@H](N1)C(=O)OCC(C)(C)C2 (single isomer, unassigned)
IC50: 1000 to 10000 nM
--
compound: CCn1c(-c2cccnc2[C@H](C)OC)c2c3cc(ccc31)-c1csc(n1)C[C@H](NC(=O)[C@H](C(C)C)N(C)C(=O)N1C[C@H]3OCCN(C)[C@H]3C1)C(=O)N1CCC[C@H](N1)C(=O)OCC(C)(C)C2 (atropisomer, axis not shown)
IC50: 100 to 1000 nM
--
compound: CCn1c(-c2cc(N3CCN(C)CC3)cnc2[C@H](C)OC)c2c3cc(ccc31)-c1cc(O)cc(c1)C[C@H](NC(=O)[C@H](C(C)C)N(C)C(=O)[C@@H]1OCC[C@@H]1c1ccccc1)C(=O)N1CCC[C@H](N1)C(=O)OCC(C)(C)C2 (atropisomer, axis not shown)
IC50: < 10 nM
--
compound: CCn1c(-c2cccnc2[C@H](C)OC)c2c3cc(ccc31)-c1csc(n1)C[C@H](NC(=O)[C@H](C(C)C)N(C)C(=O)N1[C@H](C)COC[C@H]1C)C(=O)N1CCC[C@H](N1)C(=O)OCC(C)(C)C2 (atropisomer, axis not shown)
IC50: 10 to 100 nM
--
compound: CCn1c(-c2cc(N3CCN(C)CC3)cnc2[C@H](C)OC)c2c3cc(ccc31)-c1csc(n1)C[C@H](NC(=O)[C@H](C(C)C)N(C)C(=O)N1CCC13CCN(C)CC3)C(=O)N1CCC[C@H](N1)C(=O)OCC(C)(C)C2 (atropisomer, axis not shown)
IC50: 10 to 100 nM
--
compound: CCn1c(-c2cccnc2[C@H](C)OC)c2c3cc(ccc31)-c1csc(n1)C[C@H](NC(=O)[C@H](C(C)C)N(C)C(=O)N1CCC13CCOCC3)C(=O)N1CCC[C@H](N1)C(=O)OCC(C)(C)C2 (atropisomer, axis not shown)
IC50: 100 to 1000 nM
--
compound: CCn1c(-c2cccnc2[C@H](C)OC)c2c3cc(ccc31)-c1csc(n1)C[C@H](NC(=O)[C@H](C(C)C)N(C)C(=O)N1CC[C@H](N(C)C)C1)C(=O)N1CCC[C@H](N1)C(=O)OCC(C)(C)C2
IC50: 100 to 1000 nM
--
compound: CCn1c(-c2cccnc2[C@H](C)OC)c2c3cc(ccc31)-c1csc(n1)C[C@H](NC(=O)[C@@H](OC(=O)N1CC(OC)C1)C(C)C)C(=O)N1CCC[C@H](N1)C(=O)OCC(C)(C)C2
IC50: 100 to 1000 nM
--
compound: CCn1c(-c2cccnc2[C@H](C)OC)c2c3cc(ccc31)-c1csc(n1)C[C@H](NC(=O)[C@H](C(C)C)N(C)C(=O)N1CC(OC(F)F)C1)C(=O)N1CCC[C@H](N1)C(=O)OCC(C)(C)C2 (atropisomer, axis not shown)
IC50: 100 to 1000 nM
--
compound: CCn1c(-c2cccnc2[C@H](C)OC)c2c3cc(ccc31)-c1cc(O)cc(c1)C[C@H](NC(=O)[C@H](C(C)C)N(C)C(=O)C1(C#N)CC1)C(=O)N1CCC[C@H](N1)C(=O)OCC(C)(C)C2 (racemic)
IC50: 10 to 100 nM
--
compound: CCn1c(-c2cccnc2[C@H](C)OC)c2c3cc(ccc31)-c1csc(n1)C[C@H](NC(=O)[C@H](C(C)C)N(C)C(=O)N1CC3CC(C1)N3C)C(=O)N1CCC[C@H](N1)C(=O)OCC(C)(C)C2
IC50: 100 to 1000 nM

---

# Lookup of reported IC50 keyed by entry
assayedSystem: KRAS G12C (Homo sapiens, UniProt P01116+P62937, G12C)
Sequence (P01116 1-169 isoform P01116-2 G12C): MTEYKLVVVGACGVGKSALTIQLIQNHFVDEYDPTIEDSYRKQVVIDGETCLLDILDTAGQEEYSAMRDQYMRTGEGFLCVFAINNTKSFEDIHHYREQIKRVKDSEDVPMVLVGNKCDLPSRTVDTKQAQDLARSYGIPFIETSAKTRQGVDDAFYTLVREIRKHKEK
Sequence (P62937 whole entry): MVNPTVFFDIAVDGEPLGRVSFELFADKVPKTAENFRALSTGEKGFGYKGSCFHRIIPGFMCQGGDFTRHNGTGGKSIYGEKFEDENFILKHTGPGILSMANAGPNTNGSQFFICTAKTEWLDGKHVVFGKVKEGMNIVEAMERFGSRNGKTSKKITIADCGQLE
protocolText: Disruption of BRAF RBD interaction with Ras (FRET / MOA assay, with Cyclophilin A)
Format: biochemical
recordedConditions: KRAS G12C; read-out: KRAS G12C FRET data IC50

compound: CCn1c(-c2cccnc2[C@H](C)OC)c2c3cc(ccc31)-c1cc(sn1)C[C@H](NC(=O)[C@H](C(C)C)N(C)C(=O)[C@@H]1CCN(C(=O)C#CCN3CCOCC3)C1)C(=O)N1CCC[C@H](N1)C(=O)OCC(C)(C)C2 [Example A201]
assayedSystem: KRAS G12C (Homo sapiens, UniProt P01116+P62937, G12C)
IC50: 10 to 100 nM
--
compound: C=CC(=O)N1CC[C@H](C(=O)N(C)[C@H](C(=O)N[C@H]2Cc3cc(O)cc(c3)-c3ccc4c(c3)c(c(-c3ccccc3CCOC)n4C(C)(C)C#N)CC(C)(C)COC(=O)[C@@H]3CCCN(N3)C2=O)C(C)C)C1 [Example A034]
assayedSystem: KRAS G12C (Homo sapiens, UniProt P01116+P62937, G12C)
IC50: 100 to 1000 nM
--
compound: C=CC(=O)N1CC[C@H](C(=O)N(C)[C@H](C(=O)N[C@H]2Cc3cc(O)cc(c3)-c3ccc4c(c3)c(c(-c3cncc(COC)c3)n4CC)CC(C)(C)COC(=O)[C@@H]3CCCN(N3)C2=O)C(C)C)C1 [Example A083]
assayedSystem: KRAS G12C (Homo sapiens, UniProt P01116+P62937, G12C)
IC50: 10 to 100 nM
--
compound: C=CC(=O)N1C[C@@H](C(=O)N(C)[C@H](C(=O)N[C@H]2Cc3cccc(c3)-c3ccc4c(c3)c(c(-c3cccnc3[C@H](C)OC)n4CC)CC(C)(C)COC(=O)[C@@H]3CCCN(N3)C2=O)C(C)C)[C@@H](C(F)(F)F)C1 [Example A401]
assayedSystem: KRAS G12C (Homo sapiens, UniProt P01116+P62937, G12C)
IC50: 1000 to 10000 nM
--
compound: CCn1c(-c2ccccc2CN(C)C)c2c3cc(ccc31)-c1cc(O)cc(c1)C[C@H](NC(=O)[C@H](C(C)C)N(C)C(=O)c1ccc(NC(=O)/C=C/CN(C)C)cn1)C(=O)N1CCC[C@H](N1)C(=O)OCC(C)(C)C2 [Example A046]
assayedSystem: KRAS G12C (Homo sapiens, UniProt P01116+P62937, G12C)
IC50: 100 to 1000 nM
--
compound: C=CC(=O)N1CC[C@H](C(=O)N(C)[C@H](C(=O)N[C@H]2CCC(=O)N(C)Cc3ccc4c(c3)c(c(-c3cccnc3[C@H](C)OC)n4CC)CC(C)(C)COC(=O)[C@@H]3CCCN(N3)C2=O)C(C)C)C1 [Example A500]
assayedSystem: KRAS G12C (Homo sapiens, UniProt P01116+P62937, G12C)
IC50: > 10000 nM
--
compound: CCn1c(-c2cccnc2COC)c2c3cc(ccc31)-c1cc(O)cc(c1)C[C@H](NC(=O)[C@H](C(C)C)N(C)C(=O)[C@H]1CCN(C(=O)/C=C\CN(C)C)C1)C(=O)N1CCC[C@H](N1)C(=O)OCC(C)(C)C2 [Example A164]
assayedSystem: KRAS G12C (Homo sapiens, UniProt P01116+P62937, G12C)
IC50: 10 to 100 nM
--
compound: C=CC(=O)N1CC[C@]2(C1)OCN(C(=O)N(C)[C@H](C(=O)N[C@H]1Cc3cccc(n3)-c3ccc4c(c3)c(c(-c3cccnc3[C@H](C)OC)n4CC)CC(C)(C)COC(=O)[C@@H]3CCCN(N3)C1=O)C(C)C)C2=O (atropisomer, axis not shown) [Example A652]
assayedSystem: KRAS G12C (Homo sapiens, UniProt P01116+P62937, G12C)
IC50: 100 to 1000 nM
